Test system: CCRF-CEM leukemia
Assay Explanation: NCI tumour cell line growth inhibition, 48 h
Assay Metric: TGI

Cc1cc(C2CC(O)C(CO)O2)c(Br)cc1Br (stereo not given) tested on CCRF-CEM leukemia gave TGI: > 100 µM

###

Test system: MDA-MB-231 breast
Assay Explanation: NCI tumour cell line growth inhibition, 48 h
Assay Metric: TGI

The examples below pair each entry with its known result.
Tested system MDA-MB-231 breast; TGI recorded for C[C@]12CC[C@@H]3c4cc(C=O)c(OCc5ccccc5)cc4CC[C@H]3[C@@H]1CCC2OCc1ccccc1 (some centres not stated) was > 100 µM

Form: item `CN1CN(c2ccccc2)C2(CCN(C(=O)OC(C)(C)C)CC2)C1=O` ; test system MDA-MB-231 breast; TGI: > 100 µM

Entry `CCOC(=O)/C(C(N)=O)=C(/O)c1cnccn1` ; assay system MDA-MB-231 breast; TGI recorded at > 100 µM

Measured on MDA-MB-231 breast, `O=C(Nc1ccc(-c2cn3ccccc3n2)cc1)c1cc(Br)ccc1O` has a documented TGI of > 100 µM

The compound `Clc1cccc(C=NC23CC4CC(CC(C4)C2)C3)c1Cl` , tested on MDA-MB-231 breast, showed TGI of > 10 µM

Per the reported MDA-MB-231 breast data, `Nc1ncnc2c1ncn2Cc1ccc(CCl)cc1` has TGI of 35.8 µM

Please look at the following compound next.
Reported MDA-MB-231 breast TGI for item `O=c1oc2c(Cl)cc(Cl)cc2cc1-c1cn2c(n1)sc1ccccc12` was > 100 µM

###

Test system: LOX IMVI melanoma
Assay Explanation: NCI tumour cell line growth inhibition, 48 h
Assay Metric: GI50

Reported GI50 for `CC(C)Cc1cc(-c2cccn2C)c(C#N)c(=O)[nH]1` was > 100 µM

Further cases:
Lookup result for C=C1[C@H](O)C[C@@H](C(C)C(O)CC=C(C)C)[C@@H](O)[C@@H]2C(C)=CC[C@@H]12 (stereo not given in full) ; measured GI50: > 100 µM

molecule Nc1nc(N)c2c(n1)NC(c1ccc(Cl)cc1)C1CCc3ccccc3C1=N2 (stereo not given) , GI50 observed: 3.53 µM

Reported GI50 of `Cc1cccc(Nc2ncc(-c3ccccc3)o2)c1` : > 25 µM

Entry `COc1cccc(/C=C/C(=O)c2cc3c(N)c(C(=O)Nc4ccccc4)sc3nc2C)c1` ; GI50 = 0.887 µM

###

Measured TGI of individual entries
Tested on: A498 renal
Assay Explanation: NCI tumour cell line growth inhibition, 48 h

Recorded TGI (molecule `CNC(=O)/C(C#N)=C(\N)N1CCCC1` ): > 100 µM

Briefly, TGI measured for C[C@H]1O[C@@H](O[C@H]2[C@@H](O)C[C@H](O[C@H]3[C@@H](O)C[C@H](O[C@H]4CC[C@]5(C)C6CC[C@]7(C)[C@@H](C8=CC(=O)OC8)CC[C@]7(O)C6CC[C@@H]5C4)O[C@@H]3C)O[C@@H]2C)C[C@H](O)[C@@H]1O (some centres not stated) : 0.262 µM

Per the record, CCN(CC)CCNC(=O)C1COc2ccc(-c3cc(=O)c4ccccc4o3)cc2O1 (configuration not stated) has TGI of 30.3 µM

Record `O=C(O)C(=Cc1ccc(-c2ccc([N+](=O)[O-])cc2)o1)C(=O)O` . Reported TGI: > 100 µM

According to the records, this molecule `C#CCn1c(=O)c2cc(OC)c(OC)cc2n(CC#C)c1=O` displays TGI of > 10 µM

Lookup result for `CCN(Cc1c(F)cccc1C(F)(F)F)c1ccc(CO)c(Cl)c1` ; measured TGI: 0.0463 µM

For COc1ccc(C2CC(=O)Nc3c2c(C)nn3-c2nc3ccccc3[nH]2)cc1OC (configuration not stated) the molecule record lists TGI as 13.4 µM

According to the records, this molecule COC1C[C@H](O[C@@H]2C[C@H](O[C@@H]3C[C@H](O[C@@H]4C(=O)c5c(cc6cc(O[C@H]7C[C@@H](O[C@H]8C[C@@H](O)[C@H](O)C(C)O8)[C@H](O)C(C)O7)c(C)c(O)c6c5O)C[C@H]4C(OC)C(=O)[C@@H](O)[C@@H](C)O)OC(C)[C@H]3O)OC(C)[C@@H]2O)OC(C)[C@@H]1O (some centres not stated) displays TGI of 0.108 µM

The reported value for `Nc1nc(Cl)cc(Oc2ccc(Cl)cc2)n1` in terms of TGI is > 100 µM

Briefly, TGI measured for `Cn1c(SCc2ccc([N+](=O)[O-])cc2)nnc1C12CC3CC(CC(C3)C1)C2` : > 10 µM

Continuing:
The reported value for CCOC(=O)C1=C(C)NC(c2ccccc2)=C(C(=O)OCc2ccccc2)C1C#Cc1ccccc1 (configuration not stated) in terms of TGI is > 100 µM

Kindly note the recorded TGI for `COc1cc(-c2cc(-c3ccc(Nc4nc(Nc5ccc(Cl)cc5)nc(Nc5ccc(Cl)cc5)n4)cc3)no2)cc(OC)c1OC` , which is > 100 µM

TGI in this record for `C=C1C(=O)O[C@H]2[C@H]1CC/C(COC(=O)NCCc1ccc(Br)cc1)=C\CC[C@@]1(C)O[C@@H]21` : 4.21 µM

TGI for `CC(C)c1cccc(C(C)C)c1NC(=O)/C(Cc1nc2ccc(Cl)cc2[nH]c1=O)=N\NC(=O)C[N+](C)(C)C` is > 100 µM

The molecule COc1ccc(NC(=O)CC2SC(=Nc3ccc(Cl)cc3C)NC2=O)c([N+](=O)[O-])c1 (configuration not stated) showed TGI equal to > 100 µM

Item: `O=C(Nc1n[nH]c2cc(-c3ccc(F)cc3)ccc12)C1CC1` | TGI: > 25 µM

In plain terms, `COc1cc2cc(C(=O)Nc3ccccc3)c(N)nc2cc1OC` has a documented TGI of 30.9 µM

The reported TGI of the molecule CC(C)C(N=C1CC2CCC1(C(=O)Nc1ccccc1O)C2(C)C)c1ccccc1 (configuration not stated) was > 10 µM

###

Test system: 786-0 renal
Assay Explanation: NCI tumour cell line growth inhibition, 48 h
Assay Metric: TGI (µM)
All answers are understood in µM, so give the number only.

Recorded result, `COC(=O)c1cc(NC(=O)Cn2c3ccccc3c3ccccc32)cn1C` , TGI: 72.2

***
// sample `COc1cccc(/C=C/C(=O)c2cc3c(N)c(C(=O)Nc4ccccc4)sc3nc2C)c1` , its TGI was 1.72

###

System: SK-MEL-28 melanoma
Assay Explanation: NCI tumour cell line growth inhibition, 48 h; in the data active = GI50 below about 0.43 µM; inactive = the rest
// allowed return values: YES (active), NO (inactive)

Known results for molecules:
Identify the outcome logged in this assay for the molecule shown: `Clc1ccc(Nc2nnc(COc3ccccc3)c3ccccc23)cc1` NO

Just curious, what result did `Nc1cc2c3ccccc3ccc2c2ccccc12` get here? NO

Recorded call for `CC(=O)Nc1ccc2c(c1)[nH]c(=O)c1cc(NC(C)=O)ccc12` ? NO

From here, focus on the item given below.
Check the results log: what was the call for `C=C1C(=O)O[C@H]2[C@H]1CC/C(COC(=O)NCCc1ccc(Br)cc1)=C\CC[C@@]1(C)O[C@@H]21` ? NO

###

Tested on: M19-MEL melanoma
Assay Explanation: NCI tumour cell line growth inhibition, 48 h
Assay Metric: TGI

Reference set, count: 6
For this compound ( `Cc1ccc(C2=C(c3ccccc3)C(O)(c3ccccc3)C(c3ccccc3)=C2c2ccc(C)cc2)cc1` ), measured TGI is > 100 µM

// TGI value for `Oc1ccccc1-c1cnnc(-c2ccccc2O)c1` : 61.8 µM

Just so you know, measured TGI for `CC(C)c1cccc(C(C)C)c1NC(=O)/C(Cc1nc2ccc(Cl)cc2[nH]c1=O)=N\NC(=O)C[N+](C)(C)C` came out at > 100 µM

TGI in this record for `O=C1C(Nc2ccc(S(=O)(=O)Nc3cnc4ccccc4n3)cc2)=CC(=Nc2ccc(S(=O)(=O)Nc3cnc4ccccc4n3)cc2)c2ccccc21` : 30.8 µM

The compound listed as `COc1ccc(/C=N/NC(=O)NCCNCCO)cc1` shows TGI equal to > 100 µM

Consider `O=c1[nH]c(C2CCCCC2)nc2ccc(Cl)cc12` . Its measured TGI is > 100 µM

***
Documented TGI of O=C1C2Cc3ccccc3CN2C(=O)N1CN1CCCCC1 (stereo not drawn) : > 100 µM

The compound listed as `O=C1/C(=C/c2ccc(C(=O)O)cc2)CNC/C1=C\c1ccc(C(=O)O)cc1` shows TGI equal to > 100 µM

Briefly, TGI measured for `C#CCN(Cc1ccc2nc(-c3ccccc3)c(Cl)nc2c1)c1ccc(Cl)c(Cl)c1` : > 100 µM

Per the record, CCOC1=C2N=C(C(CC)c3ccc(F)cc3)N=C2C(=O)c2ccccc21 (stereo not drawn) has TGI of > 59.4 µM

Briefly, TGI measured for OCC1OC(NO)C(O)C(O)C1O (stereo not drawn) : > 100 µM

Lab book: TGI of `COc1ccc(-c2oc(C=Nc3ccccc3)c([N+](=O)[O-])c2-c2ccc(OC)c(OC)c2)cc1OC` noted as > 100 µM

Input `O=C(C#Cc1ccccc1)Nc1ccccc1CC(c1c[nH]c2ccccc12)c1c[nH]c2ccccc12` . Output TGI: 47.8 µM

Record c1ccc(C2SCc3nc4ccccc4n32)cc1 (stereo not drawn) . Reported TGI: > 100 µM

compound C#CCN1C(=O)CN2C(Cl)(Cl)C2(c2ccccc2)c2cc(Cl)ccc21 (stereo not drawn) , TGI observed: > 100 µM

According to the records, this compound CC(C)C(N=C1CC2CCC1(C(=O)Nc1ccccc1O)C2(C)C)c1ccccc1 (stereo not drawn) displays TGI of > 10 µM

// sample `O=Cc1cc2sc(C=O)cc2s1` , its TGI was > 100 µM

# TGI of `CC(=O)Nc1ccc(S(=O)(=O)Nc2cnc3ccccc3n2)cc1` = > 100 µM
